Test system: A673/TR/shEF
Assay: cell viability (LOESS-normalised, relative to median of negative controls) (log2 ratio); higher = more viable cells (less compound effect), active = hit call of the paper (over 3 MAD below the median)
Conditions: 0.25 µM; library screen: screen1; EWS-FLI1 expression: high (no doxycycline); treatment time: 72 h
Out of some 3,200 compounds screened, about 300 (9.4%) showed activity. Shown is part of a subset that was picked to be rich in actives.
Log the outcome using a class from yes = active, no = inactive

> print(dat)
                     entry.smiles  assigned.label
1  CCCOc1ccc2nc(NC(=O)OC)[nH]c2c1              no
2  CCCSc1ccc2nc(NC(=O)OC)[nH]c2c1             yes

# input State the result this test recorded for Cc1cn2c(=O)c3ccccc3nc2nc1Nc1ccccc1C(=O)O .
# output no

* * *

Test system: A673/TR/shEF
Experiment: cell viability (LOESS-normalised, relative to median of negative controls) (log2 ratio); higher = more viable cells (less compound effect), active = hit call of the paper (over 3 MAD below the median)
Conditions: 0.25 µM; library screen: screen2; EWS-FLI1 expression: low (doxycycline-induced shRNA knockdown); treatment time: 72 h
Among all 3,200 compounds or so, about 300 (9.4%) showed activity. This excerpt belongs to a sample that is enriched for actives.
Threshold-based label: cell viability (log2) under 0.06 gives YES, cell viability (log2) not under 0.06 gives NO.

compound	assigned.label
CC(C)C[C@H](NC(=O)[C@@H](O)[C@H](N)Cc1ccccc1)C(=O)O	YES
N.N.N.N.N.O.[Ru+2]	NO
C=C(O)CCC/C=C\C[C@@H]1[C@@H](/C=C/[C@H](O)C2Cc3ccccc3C2)[C@@H](F)C[C@@H]1O	NO

# input Lab note: confirm whether the reported cell viability (log2) for this compound is below 0.06, equality not counting. compound: O=c1cc(O)cc(/C=C/c2ccc(O)c(O)c2)o1
# output YES

# input # TODO verify cell viability (log2) < 0.06 strictly for this compound: N#C/C(=C\c1ccc(O)c(O)c1)C(=O)NCCCNC(=O)/C(C#N)=C/c1ccc(O)c(O)c1
# output NO

# input Determine if O=C(/C=C/c1ccc(O)c(O)c1)OCCc1ccccc1 shows cell viability (log2) strictly lower than 0.06.
# output NO

# input Lab note: cell viability (log2) threshold 0.06. Does this compound come in strictly under it? [Cl][Pt+2][Cl].[NH2-].[NH2-]
# output YES

# input In the record for OC[C@H]1N[C@H](CO)[C@@H](O)[C@@H]1O , is cell viability (log2) less than 0.06?
# output NO

# input Given the entry N#C/C(=C\c1ccc(O)c(O)c1)C(=O)c1ccc(O)c(O)c1 , would its reported cell viability (log2) be below 0.06?
# output YES

# input Please state whether cell viability (log2) is below 0.06 for Cc1cn([C@H]2C[C@H](N=[N+]=[N-])[C@@H](CO)O2)c(=O)[nH]c1=O
# output NO

# input Determine whether this compound shows cell viability (log2) lower than 0.06 (ties excluded): COc1cccc(-c2cc(=O)c3ccccc3o2)c1N
# output NO

# input Given CC(N)=NCCC[C@H](N)C(=O)O , is recorded cell viability (log2) strictly lower than 0.06?
# output NO

# input Below 0.06 on cell viability (log2)? Entry Cc1cn([C@H]2C=C[C@@H](CO)O2)c(=O)[nH]c1=O
# output YES

* * *

Each entry below lists one item and its recorded cell viability (log2) value.
Test system: A673/TR/shEF
Assay: cell viability (LOESS-normalised, relative to median of negative controls) (log2 ratio); higher = more viable cells (less compound effect), active = hit call of the paper (over 3 MAD below the median)
Details: 2.5 µM; library screen: screen1; EWS-FLI1 expression: low (doxycycline-induced shRNA knockdown); treatment time: 72 h
Out of some 3,200 compounds screened, about 300 (9.4%) showed activity. Only a selection was taken, and actives are over-represented in it overall.
Lab note: write the figure by itself, no unit.

> print(dat)
                                   molecule       measurement.type  observed.measurement
1  COc1ccc(CN2CCN(Cc3ccc(OC)c(OC)c3OC)CC2)c(OC)c1  cell viability (log2)                0.0995
2  COc1cccc(-n2c(C)c(C(C)=O)c(C(C)=O)c2C)c1  cell viability (log2)               -0.0891
3  COc1c(CC(=O)c2cc3c(cc2O)OC(C)(C)C(O)C3)ccc2c1C=CC(C)(C)O2 (stereo not given)  cell viability (log2)                0.0703
4  COC1=C[C@@H](C)[C@@H]2C[C@H]3OC(=O)C[C@H]4C(C)=C(OC)C(=O)[C@H]([C@@]2(C)C1=O)[C@@]34C  cell viability (log2)                0.0264

# input Requested read-out: cell viability (log2). Entry: NNCCc1ccccc1
# output 0.188

* * *

System: A673/TR/shEF
Assay: cell viability (LOESS-normalised, relative to median of negative controls) (log2 ratio); higher = more viable cells (less compound effect), active = hit call of the paper (over 3 MAD below the median)
Settings: 2.5 µM; library screen: screen1; EWS-FLI1 expression: high (no doxycycline); treatment time: 72 h
In all, about 3,200 compounds went through this assay and about 300 (9.4%) showed activity. The entries come from a sample that favours actives as a whole.
Answer with one of the outcomes given here: Y (active), N (inactive)

Study these solved cases before continuing.
> print(dat)
                                   compound   measured.on  assigned.label
1  Cc1cc(N)c2ccccc2[n+]1CCCCCCCCCC[n+]1c(C)cc(N)c2ccccc21  A673/TR/shEF               Y
2             C=C(c1ccccc1)c1cc(O)c(OC)cc1O  A673/TR/shEF               N
3                         Nc1ncc2[nH]cnc2n1  A673/TR/shEF               Y

# input Which outcome was assigned to COC(=O)C[C@H]1C(C)(C)[C@@H](OC(C)=O)[C@@H]2CC3=C4CC(=O)O[C@@H](c5ccoc5)[C@]4(C)CC[C@@H]3[C@@]1(C)C2=O in this test?
# output N

# input What did this assay record as the result for C=CCN1C(=O)/C(=C2\SC(=S)N(c3c(C)n(C)n(-c4ccccc4)c3=O)C2=O)c2ccccc21 ?
# output N

# input What did the test return for CC(C)(O)[C@H]1CC[C@]2(C)[C@H]3CC[C@@H]4[C@@]5(C)CCCC(C)(C)[C@@H]5[C@@H](O)C[C@@]4(C)[C@]3(C)CC[C@@H]12 ?
# output N

# input State the result this test recorded for Cc1cc2ncc(-c3ccccc3)nc2cc1C .
# output Y

# input Each compound tested received a call. Report the one for COc1c(C(=O)O)ccc2c1CCC(C)(C)O2 .
# output N

# input Per the assay record, what outcome was assigned to CC(C)c1c(O)c(-c2cc3c(c(C(C)C)c2O)CCC2C(C)(C)CCCC32C)cc2c1CCC1C(C)(C)CCCC21C (centres undefined) ?
# output N

* * *

System: A673/TR/shEF
Assay: cell viability (LOESS-normalised, relative to median of negative controls) (log2 ratio); higher = more viable cells (less compound effect), active = hit call of the paper (over 3 MAD below the median)
Details: 0.25 µM; library screen: screen1; EWS-FLI1 expression: high (no doxycycline); treatment time: 72 h
In all, about 3,200 compounds went through this assay and about 300 (9.4%) showed activity. Only a selection was taken, and actives are over-represented in it overall.
Measured cell viability (log2) values are reported for all entries that follow.
No unit in the answer, only the number.

# input Item Cc1c2oc3c(C)ccc(C(=O)NC4C(=O)NC(C(C)C)C(=O)N5CCCC5C(=O)N(C)CC(=O)N(C)C(C(C)C)C(=O)OC4C)c3nc-2c(C(=O)NC2C(=O)NC(C(C)C)C(=O)N3CCCC3C(=O)N(C)CC(=O)N(C)C(C(C)C)C(=O)OC2C)c(N)c1=O (stereo not given) has what recorded cell viability (log2)?
# output -4.25

# input Quick check: cell viability (log2) of O=C(CSc1nc2ccccc2[nH]1)c1ccc(OC(F)F)cc1 ?
# output 0.0646

# input So what's the measured cell viability (log2) for this one? Cc1ccc(C(=O)NCCSc2ccccn2)cc1
# output 0.109

# input Request the reported cell viability (log2) associated with CC(=O)O[C@@H]1CC2C(C)(C)C(=O)CC[C@]2(C)C2CC[C@]3(C)C(=CC(=O)O[C@H]3c3ccoc3)[C@@]21C (stereo not given in full)
# output 0.0774

# input Any idea what its cell viability (log2) is? The compound is COc1ccc(-c2oc3cc(O[C@@H]4O[C@H](CO)[C@@H](O)[C@H](O)[C@H]4O)c(OC)c(O)c3c(=O)c2OC)cc1O
# output 0.0438

# input Report cell viability (log2) for COc1c(Cl)c(C)c2c(c1Cl)OC(=O)c1c(C)c(Cl)c(O)c(Cl)c1O2 please.
# output 0.0361

# input Can you look up the measured cell viability (log2) of O=C(Nc1ccccc1)Nc1ccccc1 for me?
# output -0.0389

# input What does the data say about its cell viability (log2)? Entry: C[C@@H]1O[C@@H](O[C@H]2[C@H](O[C@H]3CC[C@@]4(C)[C@@H](CC[C@]5(C)[C@@H]4CC=C4[C@@H]6CC(C)(C)CC[C@]6(C(=O)O)CC[C@]45C)[C@]3(C)CO)OC[C@H](O)[C@@H]2O)[C@H](O)[C@H](O)[C@H]1O
# output 0.0421

# input Tell me the measured cell viability (log2) of COc1ccc(-c2cc(=O)c3ccccc3o2)cc1OC , please.
# output -0.0122
